Collected AC50 values appear next to each entry.
Target: Alpha-2A adrenergic receptor (Homo sapiens); also: assay procedure not described here
Sequence (P08913 whole entry): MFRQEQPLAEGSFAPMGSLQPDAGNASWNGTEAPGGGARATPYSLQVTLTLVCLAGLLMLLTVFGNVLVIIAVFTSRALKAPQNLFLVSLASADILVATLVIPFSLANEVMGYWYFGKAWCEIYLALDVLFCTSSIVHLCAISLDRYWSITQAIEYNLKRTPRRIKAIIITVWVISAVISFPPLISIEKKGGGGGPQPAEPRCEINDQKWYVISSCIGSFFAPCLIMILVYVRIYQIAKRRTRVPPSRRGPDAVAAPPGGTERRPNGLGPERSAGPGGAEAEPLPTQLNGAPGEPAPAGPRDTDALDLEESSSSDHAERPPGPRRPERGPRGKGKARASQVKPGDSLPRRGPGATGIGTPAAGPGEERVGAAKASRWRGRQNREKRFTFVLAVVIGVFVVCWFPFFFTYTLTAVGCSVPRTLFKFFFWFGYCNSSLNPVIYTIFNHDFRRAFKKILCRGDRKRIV
Format: functional, cell-based

O=C(OCCN1CCOCC1)c1cccnc1Nc1cccc(C(F)(F)F)c1 [MORNIFLUMATE] :: > 30 µM
O=C(C[S+]([O-])C(c1ccccc1)c1ccccc1)NO (centres undefined) :: > 30 µM
CC(=O)NS(=O)(=O)c1ccc(N)cc1 [SULFACETAMIDE] :: > 10 µM

Exam item: // returns reported AC50 for input CCOC(=O)[C@H](CCc1ccccc1)N[C@H]1CCCN2CCC[C@@H](C(=O)O)N2C1=O
Marked response: > 30 µM

Exam item: I'd like to know its AC50. The molecule in question is CN(C)CCCN1c2ccccc2CCc2ccc(Cl)cc21
Marked response: > 10 µM

Exam item: Tell me the measured AC50 of COc1c(C)c2c(c(O)c1C/C=C(\C)CCC(=O)OCCN1CCOCC1)C(=O)OC2 [MYCOPHENOLATE MOFETIL] , please.
Marked response: > 30 µM

Exam item: May I ask what AC50 has been recorded for NC1=NC(=O)C(c2ccccc2)O1 (centres undefined) ?
Marked response: > 10 µM

Exam item: Request the reported AC50 associated with CCCCCN(C)CCC(O)(P(=O)(O)O)P(=O)(O)O
Marked response: > 30 µM

Exam item: State the recorded AC50 for this entry: COc1ccc2c(c1)c(CC(=O)OCC(=O)O)c(C)n2C(=O)c1ccc(Cl)cc1
Marked response: > 30 µM
